- Experimental Target: 5-hydroxytryptamine receptor 5A (Homo sapiens, UniProt P47898)
- Sequence (P47898 whole entry): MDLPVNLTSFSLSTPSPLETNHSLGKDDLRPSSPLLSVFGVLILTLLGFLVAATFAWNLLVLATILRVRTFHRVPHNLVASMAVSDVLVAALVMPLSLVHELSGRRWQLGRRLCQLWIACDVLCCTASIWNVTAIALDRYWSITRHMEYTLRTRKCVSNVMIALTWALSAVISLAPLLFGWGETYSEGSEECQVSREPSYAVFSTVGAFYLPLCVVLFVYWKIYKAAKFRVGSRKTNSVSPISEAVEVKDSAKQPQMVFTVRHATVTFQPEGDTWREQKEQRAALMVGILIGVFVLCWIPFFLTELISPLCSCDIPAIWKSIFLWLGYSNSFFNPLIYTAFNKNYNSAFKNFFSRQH
- Assay Method Text: Binding affinity to recombinant 5-HT5 receptor (unknown origin) after 1.5 hrs by radioligand displacement assay
pKi: −log10 of the molar value.
Result Type: pKi

[[record]]
compound_structure = "O=C(CCCCN1CCN(c2ccccc2O)CC1)n1c2ccccc2c2ccccc21"
measured_value = 6.47

[[record]]
compound_structure = "COc1ccccc1N1CCN(CCCCC(=O)n2c3ccccc3c3ccccc32)CC1"
measured_value = 8.30

[[record]]
compound_structure = "O=C(CCCCCN1CCN(c2ccccc2O)CC1)n1c2ccccc2c2ccccc21"
measured_value = 6.03


====

Below, each of the compounds is paired with its reported inhibition value.
- Experimental Target: 5-hydroxytryptamine receptor 3A (Homo sapiens)
- Sequence (whole entry): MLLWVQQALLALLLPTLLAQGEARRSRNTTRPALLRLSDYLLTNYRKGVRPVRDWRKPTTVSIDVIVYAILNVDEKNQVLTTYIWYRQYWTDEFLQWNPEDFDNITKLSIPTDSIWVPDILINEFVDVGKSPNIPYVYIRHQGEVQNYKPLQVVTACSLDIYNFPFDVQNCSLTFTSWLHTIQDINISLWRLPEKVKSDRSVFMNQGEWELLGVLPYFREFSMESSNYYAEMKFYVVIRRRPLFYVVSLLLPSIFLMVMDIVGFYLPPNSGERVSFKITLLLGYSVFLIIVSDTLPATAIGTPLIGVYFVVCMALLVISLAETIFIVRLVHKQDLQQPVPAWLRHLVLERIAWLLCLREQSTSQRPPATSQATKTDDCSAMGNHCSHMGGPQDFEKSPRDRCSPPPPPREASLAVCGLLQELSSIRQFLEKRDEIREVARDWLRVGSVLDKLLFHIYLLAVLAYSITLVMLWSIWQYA
- Assay Method Text: Binding affinity to recombinant 5-HT3 receptor (unknown origin) at 10 uM after 1.5 hrs by radioligand displacement assay
Result Type: inhibition (%)

[[record]]
compound_structure = "O=C(CCCCCN1CCN(c2ccccc2O)CC1)n1c2ccccc2c2ccccc21"
measured_value = 41

[[record]]
compound_structure = "O=C(CCCCN1CCN(c2ccccc2O)CC1)n1c2ccccc2c2ccccc21"
measured_value = 41

[[record]]
compound_structure = "COc1ccccc1N1CCN(CCCCC(=O)n2c3ccccc3c3ccccc32)CC1"
measured_value = 24

[[record]]
compound_structure = "COc1ccccc1N1CCN(CCCCCC(=O)n2c3ccccc3c3ccccc32)CC1.Cl"
measured_value = 18


====

- Assay Method Text: Plasma concentration in Sprague-Dawley rat at 10 mg/kg, iv after 2 hrs by LC-MS/MS analysis
- Assay type: ADME, organism-based
Result Type: concentration at 2 h (ng/mL)

[[record]]
compound_structure = "COc1ccccc1N1CCN(CCCCCC(=O)n2c3ccccc3c3ccccc32)CC1.Cl"
measured_value = 210


====

- Assay Method Text: Terminal half life in Sprague-Dawley rat at 10 mg/kg, po by LC-MS/MS analysis
- Format: ADME, organism-based
- Stated Conditions: in vivo, read-out: beta t1/2
Result Type: half-life

[[record]]
compound_structure = "COc1ccccc1N1CCN(CCCCCC(=O)n2c3ccccc3c3ccccc32)CC1.Cl"
measured_value = "6.62 h"


====

- Experimental Target: 5-hydroxytryptamine receptor 2B (Homo sapiens, UniProt P41595)
- Sequence (P41595 whole entry): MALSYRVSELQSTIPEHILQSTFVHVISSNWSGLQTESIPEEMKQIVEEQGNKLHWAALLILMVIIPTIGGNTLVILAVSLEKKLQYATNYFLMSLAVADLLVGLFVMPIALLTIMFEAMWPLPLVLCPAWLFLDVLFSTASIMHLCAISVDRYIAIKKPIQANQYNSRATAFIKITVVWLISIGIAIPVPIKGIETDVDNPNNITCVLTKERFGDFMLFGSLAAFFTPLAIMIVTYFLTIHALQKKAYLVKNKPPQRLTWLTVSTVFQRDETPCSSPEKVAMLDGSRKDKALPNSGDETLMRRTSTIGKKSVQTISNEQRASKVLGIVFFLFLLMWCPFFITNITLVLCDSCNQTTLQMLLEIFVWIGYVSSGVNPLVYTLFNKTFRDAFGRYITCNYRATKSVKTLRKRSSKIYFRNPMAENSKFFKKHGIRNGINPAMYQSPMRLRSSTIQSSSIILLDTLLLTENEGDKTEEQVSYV
- Assay Method Text: Binding affinity to recombinant 5-HT2B receptor (unknown origin) after 1.5 hrs by radioligand displacement assay
Result Type: Ki (nM)

[[record]]
compound_structure = "COc1ccccc1N1CCN(CCCCCC(=O)n2c3ccccc3c3ccccc32)CC1.Cl"
measured_value = 419

[[record]]
compound_structure = "COc1ccccc1N1CCN(CCCCC(=O)n2c3ccccc3c3ccccc32)CC1"
measured_value = 93

[[record]]
compound_structure = "O=C(CCCCN1CCN(c2ccccc2O)CC1)n1c2ccccc2c2ccccc21"
measured_value = 83

[[record]]
compound_structure = "O=C(CCCCCN1CCN(c2ccccc2O)CC1)n1c2ccccc2c2ccccc21"
measured_value = 101


====

- Assay Method Text: AUC (0 to infinity) in Sprague-Dawley rat at 10 mg/kg, po by LC-MS/MS analysis
- Type: ADME, organism-based
- Design: dose 10 mg/kg, route oral, time infinity
- Stated Conditions: in vivo
Result Type: AUC(0-inf) (ng·h/mL)

[[record]]
compound_structure = "COc1ccccc1N1CCN(CCCCCC(=O)n2c3ccccc3c3ccccc32)CC1.Cl"
measured_value = 998


====

- Assay Method Text: Oral bioavailability in Sprague-Dawley rat at 10 mg/kg by LC-MS/MS analysis
- Format: ADME, organism-based
- Stated Conditions: in vivo
Result Type: bioavailability (%)

[[record]]
compound_structure = "COc1ccccc1N1CCN(CCCCCC(=O)n2c3ccccc3c3ccccc32)CC1.Cl"
readout_unit = "%"
measured_value = 67.8


====

Entries annotated with measured Ki
- Experimental Target: 5-hydroxytryptamine receptor 7 (Homo sapiens, UniProt P34969)
- Sequence (P34969 whole entry): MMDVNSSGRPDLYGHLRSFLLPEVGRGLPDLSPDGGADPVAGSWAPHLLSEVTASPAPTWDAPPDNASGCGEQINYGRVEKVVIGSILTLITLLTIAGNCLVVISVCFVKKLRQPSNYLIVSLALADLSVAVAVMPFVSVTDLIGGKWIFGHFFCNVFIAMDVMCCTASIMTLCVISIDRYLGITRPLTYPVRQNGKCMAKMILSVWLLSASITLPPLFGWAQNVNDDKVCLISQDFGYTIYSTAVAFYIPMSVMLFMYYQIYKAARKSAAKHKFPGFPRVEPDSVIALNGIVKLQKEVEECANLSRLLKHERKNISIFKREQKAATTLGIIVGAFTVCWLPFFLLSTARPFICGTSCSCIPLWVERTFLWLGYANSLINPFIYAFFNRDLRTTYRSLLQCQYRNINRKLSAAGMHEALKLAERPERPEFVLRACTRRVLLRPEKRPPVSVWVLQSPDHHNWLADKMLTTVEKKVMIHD
- Assay Method Text: Binding affinity to recombinant 5-HT7 receptor (unknown origin) after 1.5 hrs by radioligand displacement assay
Result Type: Ki

[[record]]
compound_structure = "O=C(CCCCCN1CCN(c2ccccc2O)CC1)n1c2ccccc2c2ccccc21"
experimental_target = "5-hydroxytryptamine receptor 7 (Homo sapiens, UniProt P34969)"
result_type = "Ki"
measured_value = "38 nM"

[[record]]
compound_structure = "COc1ccccc1N1CCN(CCCCC(=O)n2c3ccccc3c3ccccc32)CC1"
experimental_target = "5-hydroxytryptamine receptor 7 (Homo sapiens, UniProt P34969)"
result_type = "Ki"
measured_value = "30 nM"

[[record]]
compound_structure = "COc1ccccc1N1CCN(CCCCCC(=O)n2c3ccccc3c3ccccc32)CC1.Cl"
experimental_target = "5-hydroxytryptamine receptor 7 (Homo sapiens, UniProt P34969)"
result_type = "Ki"
measured_value = "74 nM"


====

- Assay Method Text: Volume of distribution at steady state in Sprague-Dawley rat at 10 mg/kg, iv by LC-MS/MS analysis
- Format: ADME, organism-based
- Stated Conditions: in vivo, read-out: Vdss
Result Type: Vd (L/kg)

[[record]]
compound_structure = "COc1ccccc1N1CCN(CCCCCC(=O)n2c3ccccc3c3ccccc32)CC1.Cl"
result_type = "Vd"
readout_unit = "L/kg"
measured_value = 33.5


====

- Experimental Target: 5-hydroxytryptamine receptor 1D (Homo sapiens, UniProt P28221)
- Sequence (P28221 whole entry): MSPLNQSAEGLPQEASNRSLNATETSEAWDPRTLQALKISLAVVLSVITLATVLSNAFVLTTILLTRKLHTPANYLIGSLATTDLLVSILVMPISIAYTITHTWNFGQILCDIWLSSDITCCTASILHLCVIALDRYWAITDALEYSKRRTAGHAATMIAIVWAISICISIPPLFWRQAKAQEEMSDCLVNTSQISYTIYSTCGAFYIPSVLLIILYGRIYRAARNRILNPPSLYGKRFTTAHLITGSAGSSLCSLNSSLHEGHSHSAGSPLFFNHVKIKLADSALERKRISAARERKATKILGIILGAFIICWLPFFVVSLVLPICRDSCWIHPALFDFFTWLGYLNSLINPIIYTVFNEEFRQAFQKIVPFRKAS
- Assay Method Text: Binding affinity to recombinant 5-HT1D receptor (unknown origin) after 1.5 hrs by radioligand displacement assay
Result Type: Ki (nM)

[[record]]
compound_structure = "O=C(CCCCCN1CCN(c2ccccc2O)CC1)n1c2ccccc2c2ccccc21"
readout_unit = "nM"
measured_value = 28

[[record]]
compound_structure = "O=C(CCCCN1CCN(c2ccccc2O)CC1)n1c2ccccc2c2ccccc21"
readout_unit = "nM"
measured_value = 1400

[[record]]
compound_structure = "COc1ccccc1N1CCN(CCCCCC(=O)n2c3ccccc3c3ccccc32)CC1.Cl"
readout_unit = "nM"
measured_value = 1280

[[record]]
compound_structure = "COc1ccccc1N1CCN(CCCCC(=O)n2c3ccccc3c3ccccc32)CC1"
readout_unit = "nM"
measured_value = 462


====

Reported pKi values for a set of compounds
- Experimental Target: UniProtKB P08908
- Sequence (P08908 whole entry): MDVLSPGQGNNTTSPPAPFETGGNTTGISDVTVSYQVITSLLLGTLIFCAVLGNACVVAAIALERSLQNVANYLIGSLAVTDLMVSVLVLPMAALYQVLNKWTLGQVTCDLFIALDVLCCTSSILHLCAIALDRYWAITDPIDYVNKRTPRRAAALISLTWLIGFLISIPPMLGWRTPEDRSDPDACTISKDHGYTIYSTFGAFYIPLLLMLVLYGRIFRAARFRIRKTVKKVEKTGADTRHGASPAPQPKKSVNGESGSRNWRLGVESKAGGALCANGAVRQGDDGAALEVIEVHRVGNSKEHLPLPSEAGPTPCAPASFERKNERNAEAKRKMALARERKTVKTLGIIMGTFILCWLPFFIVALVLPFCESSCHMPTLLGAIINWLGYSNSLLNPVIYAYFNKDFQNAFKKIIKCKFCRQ
- Assay Method Text: Binding affinity to recombinant 5-HT1A receptor (unknown origin) after 1.5 hrs by radioligand displacement assay
pKi: −log10 of the molar value.
Result Type: pKi

[[record]]
compound_structure = "COc1ccccc1N1CCN(CCCCCC(=O)n2c3ccccc3c3ccccc32)CC1.Cl"
experimental_target = "UniProtKB P08908"
measured_value = 6.26

[[record]]
compound_structure = "O=C(CCCCCN1CCN(c2ccccc2O)CC1)n1c2ccccc2c2ccccc21"
experimental_target = "UniProtKB P08908"
measured_value = 6.83

[[record]]
compound_structure = "O=C(CCCCN1CCN(c2ccccc2O)CC1)n1c2ccccc2c2ccccc21"
experimental_target = "UniProtKB P08908"
measured_value = 7.66

[[record]]
compound_structure = "COc1ccccc1N1CCN(CCCCC(=O)n2c3ccccc3c3ccccc32)CC1"
experimental_target = "UniProtKB P08908"
measured_value = 6.91


====

- Assay Method Text: Plasma concentration in Sprague-Dawley rat at 10 mg/kg, po after 2 hrs by LC-MS/MS analysis
- Assay type: ADME, organism-based
Result Type: concentration at 2 h (ng/mL)

[[record]]
compound_structure = "COc1ccccc1N1CCN(CCCCCC(=O)n2c3ccccc3c3ccccc32)CC1.Cl"
readout_unit = "ng/mL"
measured_value = 70


====

- Experimental Target: 5-hydroxytryptamine receptor 7 (Homo sapiens, UniProt P34969)
- Assay Method Text: Displacement of [3H]LSD from 5-HT7 receptor (unknown origin) expressed in CHO-K1 cells by liquid scintillation counting method
- Format: cell-based
Result Type: Ki (nM)

[[record]]
compound = "O=C(CCCCN1CCC(c2ccccc2)CC1)n1c2ccccc2c2ccccc21"
experimental_target = "5-hydroxytryptamine receptor 7 (Homo sapiens, UniProt P34969)"
readout_unit = "nM"
measured_value = 153

[[record]]
compound = "O=C(CCCCCN1CCCC1)n1c2ccccc2c2ccccc21"
experimental_target = "5-hydroxytryptamine receptor 7 (Homo sapiens, UniProt P34969)"
readout_unit = "nM"
measured_value = 1050

[[record]]
compound = "O=C(CCCCCN1CCN(c2ccccc2O)CC1)n1c2ccccc2c2ccccc21"
experimental_target = "5-hydroxytryptamine receptor 7 (Homo sapiens, UniProt P34969)"
readout_unit = "nM"
measured_value = 38

[[record]]
compound = "O=C(CCCCN1CCN(c2ccccc2O)CC1)n1c2ccccc2c2ccccc21"
experimental_target = "5-hydroxytryptamine receptor 7 (Homo sapiens, UniProt P34969)"
readout_unit = "nM"
measured_value = 86

[[record]]
compound = "CC1CC(C)CN(CCCCC(=O)n2c3ccccc3c3ccccc32)C1 (stereo not drawn)"
experimental_target = "5-hydroxytryptamine receptor 7 (Homo sapiens, UniProt P34969)"
readout_unit = "nM"
measured_value = 1400

[[record]]
compound = "CN1CCN(CCCCCC(=O)n2c3ccccc3c3ccccc32)CC1"
experimental_target = "5-hydroxytryptamine receptor 7 (Homo sapiens, UniProt P34969)"
readout_unit = "nM"
measured_value = 1910

[[record]]
compound = "CN(CCCCC(=O)n1c2ccccc2c2ccccc21)Cc1ccccc1"
experimental_target = "5-hydroxytryptamine receptor 7 (Homo sapiens, UniProt P34969)"
readout_unit = "nM"
measured_value = 513

[[record]]
compound = "O=C(CCCCN1CCC(Cc2ccccc2)CC1)n1c2ccccc2c2ccccc21"
experimental_target = "5-hydroxytryptamine receptor 7 (Homo sapiens, UniProt P34969)"
readout_unit = "nM"
measured_value = 312

[[record]]
compound = "CCCCN(C)CCCCCC(=O)n1c2ccccc2c2ccccc21"
experimental_target = "5-hydroxytryptamine receptor 7 (Homo sapiens, UniProt P34969)"
readout_unit = "nM"
measured_value = 680

[[record]]
compound = "CC(=O)N1CCN(CCCCCC(=O)n2c3ccccc3c3ccccc32)CC1"
experimental_target = "5-hydroxytryptamine receptor 7 (Homo sapiens, UniProt P34969)"
readout_unit = "nM"
measured_value = 2340

[[record]]
compound = "COc1ccccc1N1CCN(CCCCCC(=O)n2c3ccccc3c3ccccc32)CC1.Cl"
experimental_target = "5-hydroxytryptamine receptor 7 (Homo sapiens, UniProt P34969)"
readout_unit = "nM"
measured_value = 74

[[record]]
compound = "O=C(CCCCN1CCCCCC1)n1c2ccccc2c2ccccc21"
experimental_target = "5-hydroxytryptamine receptor 7 (Homo sapiens, UniProt P34969)"
readout_unit = "nM"
measured_value = 949

[[record]]
compound = "CC(=O)N1CCN(CCCCC(=O)n2c3ccccc3c3ccccc32)CC1"
experimental_target = "5-hydroxytryptamine receptor 7 (Homo sapiens, UniProt P34969)"
readout_unit = "nM"
measured_value = 1070

[[record]]
compound = "O=C(CCCCCN1CCOCC1)n1c2ccccc2c2ccccc21"
experimental_target = "5-hydroxytryptamine receptor 7 (Homo sapiens, UniProt P34969)"
readout_unit = "nM"
measured_value = 1310

[[record]]
compound = "O=C(CCCCCN1CCC(Cc2ccccc2)CC1)n1c2ccccc2c2ccccc21"
experimental_target = "5-hydroxytryptamine receptor 7 (Homo sapiens, UniProt P34969)"
readout_unit = "nM"
measured_value = 252

[[record]]
compound = "CC1CCCN(CCCCCC(=O)n2c3ccccc3c3ccccc32)C1 (stereo not drawn)"
experimental_target = "5-hydroxytryptamine receptor 7 (Homo sapiens, UniProt P34969)"
readout_unit = "nM"
measured_value = 550

[[record]]
compound = "CC1CC(C)CN(CCCCCC(=O)n2c3ccccc3c3ccccc32)C1 (stereo not drawn)"
experimental_target = "5-hydroxytryptamine receptor 7 (Homo sapiens, UniProt P34969)"
readout_unit = "nM"
measured_value = 833

[[record]]
compound = "CCCCN(C)CCCCC(=O)n1c2ccccc2c2ccccc21"
experimental_target = "5-hydroxytryptamine receptor 7 (Homo sapiens, UniProt P34969)"
readout_unit = "nM"
measured_value = 1280

[[record]]
compound = "CC1CCN(CCCCC(=O)n2c3ccccc3c3ccccc32)CC1"
experimental_target = "5-hydroxytryptamine receptor 7 (Homo sapiens, UniProt P34969)"
readout_unit = "nM"
measured_value = 592

[[record]]
compound = "O=C(CCCCN1CCCC1)n1c2ccccc2c2ccccc21"
experimental_target = "5-hydroxytryptamine receptor 7 (Homo sapiens, UniProt P34969)"
readout_unit = "nM"
measured_value = 2160

[[record]]
compound = "COc1ccccc1N1CCN(CCCCC(=O)n2c3ccccc3c3ccccc32)CC1"
experimental_target = "5-hydroxytryptamine receptor 7 (Homo sapiens, UniProt P34969)"
readout_unit = "nM"
measured_value = 30

[[record]]
compound = "O=C(CCCCCN1CCCCCC1)n1c2ccccc2c2ccccc21"
experimental_target = "5-hydroxytryptamine receptor 7 (Homo sapiens, UniProt P34969)"
readout_unit = "nM"
measured_value = 616

[[record]]
compound = "O=C(CCCCCN1CCC(c2ccccc2)CC1)n1c2ccccc2c2ccccc21"
experimental_target = "5-hydroxytryptamine receptor 7 (Homo sapiens, UniProt P34969)"
readout_unit = "nM"
measured_value = 157

